Reference source: paper PMC11909128

Molecular target: GST-PIN1 (UniProt Q13526 1-163, methionine (Met 1) mutated to asparagine (Asn 1))
Sequence (Q13526 other isoform, or with tags, fused parts or gaps methionine (Met 1) mutated to asparagine (Asn 1)): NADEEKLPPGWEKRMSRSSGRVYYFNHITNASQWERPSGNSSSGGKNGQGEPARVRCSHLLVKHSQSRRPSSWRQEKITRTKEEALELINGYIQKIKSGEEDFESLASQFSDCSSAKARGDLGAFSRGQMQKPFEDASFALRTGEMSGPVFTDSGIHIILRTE
Assay: FP; 100 uM KPT-6566
Square brackets hold non-standard residues; d marks the D form. fluorescein = fluorescein label at the N-terminus via an aminohexanoic acid (Ahx) linker; pS = N[C@@H](COP(=O)(O)O)C(=O)O; Ahx = NCCCCCC(=O)O
outcome_measure: pKd
Give bare numbers, as −log10 of the molar value.

Solved cases (2 shown):
binder: {fluorescein-Ahx}-EDGKPY[pS]PSEYDLQ-OH (NRF2 (nuclear factor erythroid 2-related factor 2), residues 571-584, in the Neh3 domain; see recheck for residue 582; source: synthetic peptide, bought: China Peptides) [fluorescein-labelled NRF2(571-584) pSer577 phospho-peptide]
pKd: 4.60
//
binder: {fluorescein-Ahx}-DMVQPL[pS]PSQGQST-OH (NRF2 (nuclear factor erythroid 2-related factor 2), residues 402-415, linker between the Neh6 and Neh1 domains; source: synthetic peptide, bought: China Peptides) [fluorescein-labelled NRF2(402-415) pSer408 phospho-peptide]
pKd: 4.69

Complete the entry with pKd for {fluorescein-Ahx}-ETTMVP[pS]PEAKLTE-OH (NRF2 (nuclear factor erythroid 2-related factor 2), residues 209-222, in the Neh7 domain; also called Peptide 1; source: synthetic peptide, bought: China Peptides) [fluorescein-labelled NRF2(209-222) pSer215 phospho-peptide]
5.39
